molecular target: Human immunodeficiency virus type 1 reverse transcriptase (Human immunodeficiency virus 1, UniProt Q72547, K103N/Y181C); assay: Inhibition of HIV1 recombinant reverse transcriptase K103N/Y181C double mutant by SPA heteropolymeric assay
pIC50: −log10 of the molar value.
property_name: pIC50

>>> df
                               record_smiles  property_name  qualifier_symbol  number
 0  COc1cc(C#N)cc(C)c1Oc1nc(NC2CCN(c3cccc(C(N)=O)c3)CC2)ncc1Br          pIC50                 =    7.25
 1  Cc1cc(C#N)cc(C)c1Oc1nc(NC2CCN(c3cccc(C(N)=O)c3)CC2)ncc1F          pIC50                 =    7.85
 2  Cc1cc(C#N)cc(Cl)c1Oc1nc(NC2CCN(c3cccc(C(N)=O)c3)CC2)ncc1Br          pIC50                 =    7.55
 3  Cc1cc(C#N)cc(C)c1Oc1nc(NC2CCN(c3cccc(C(N)=O)c3)CC2)ncc1C(F)(F)F          pIC50                 =    7.39
 4  Cc1cc(C#N)cc(C)c1Oc1nc(NC2CCN(c3cccc(C(N)=O)c3)CC2)ncc1Br          pIC50                 =    7.52
 5  Cc1cc(C#N)cc(C)c1Oc1nc(NC2CCN(c3cccc(S(N)(=O)=O)c3)CC2)ncc1Br          pIC50                 =    7.14
 6  Cc1cc(C#N)cc(C)c1Oc1nc(NC2CCN(c3cccc(C(N)=O)c3)CC2)ncc1[N+](=O)[O-]          pIC50                 =    7.19
 7  Cc1cc(C#N)cc(C)c1Oc1nc(NC2CCN(c3cc(C(N)=O)ccc3Cl)CC2)ncc1Br          pIC50                 <    6.00
 8  Cc1cnc(NC2CCN(c3cccc(C(N)=O)c3)CC2)nc1Oc1c(C)cc(C#N)cc1C          pIC50                 =    7.82
 9  COc1cc(C#N)cc(C)c1Oc1nc(NC2CCN(c3cccc(C(N)=O)c3)CC2)ncc1C          pIC50                 =    7.68
10  Cc1cc(C#N)cc(C)c1Oc1nc(NC2CCN(c3cccc(C(N)=O)c3)CC2)ncc1N          pIC50                 =    7.77
11  Cc1cc(C#N)cc(C)c1Oc1nc(NC2CCN(c3cccc(C(=O)O)c3)CC2)ncc1Br          pIC50                 <    6.00
12  Cc1cc(C#N)cc(Cl)c1Nc1ccnc(NC2CCN(c3cccc(C(N)=O)c3)CC2)n1          pIC50                 =    7.44
13  Cc1cc(C#N)cc(C)c1Oc1nc(NC2CCN(c3cccc(C#N)c3)CC2)ncc1Br          pIC50                 =    6.45
14  Cc1cc(C#N)cc(C)c1Oc1nc(NC2CCN(c3cccc(S(C)(=O)=O)c3)CC2)ncc1Br          pIC50                 =    7.00
15  Cc1cc(C#N)cc(C)c1Oc1nc(NC2CCN(c3ccccc3C(N)=O)CC2)ncc1Br          pIC50                 =    6.01
16  Cc1cc(C#N)cc(Cl)c1Oc1ccnc(NC2CCN(c3cccc(C(N)=O)c3)CC2)n1          pIC50                 =    8.10
17  Cc1cc(C#N)cc(F)c1Oc1nc(NC2CCN(c3cccc(C(N)=O)c3)CC2)ncc1Br          pIC50                 =    8.22
18  Cc1cc(C#N)cc(C)c1Oc1ccnc(NC2CCN(c3cccc(S(N)(=O)=O)c3)CC2)n1          pIC50                 =    6.21

---

biological target: Human immunodeficiency virus type 1 reverse transcriptase (Human immunodeficiency virus 1, UniProt Q72547, Y188L); assay: Inhibition of HIV1 recombinant reverse transcriptase Y188L mutant by SPA heteropolymeric assay
pIC50: −log10 of the molar value.
property_name: pIC50

>>> print(df.to_string())
                              record_smiles  property_name  qualifier_symbol  number
0  Cc1cc(C#N)cc(Cl)c1Oc1nc(NC2CCN(c3cccc(C(N)=O)c3)CC2)ncc1Br          pIC50                 =    6.38
1  Cc1cc(C#N)cc(F)c1Oc1nc(NC2CCN(c3cccc(C(N)=O)c3)CC2)ncc1Br          pIC50                 =    7.54
2  Cc1cc(C#N)cc(C)c1Oc1nc(NC2CCN(c3cccc(C(N)=O)c3)CC2)ncc1Cl          pIC50                 =    6.69
3  Cc1cc(C#N)cc(C)c1Oc1ccnc(NC2CCN(c3ccc(S(N)(=O)=O)cc3)CC2)n1          pIC50                 <    6.00
4  Cc1cc(C#N)cc(C)c1Oc1nc(NC2CCN(c3cccc(S(C)(=O)=O)c3)CC2)ncc1Br          pIC50                 =    6.08

---

target: Human immunodeficiency virus type 1 reverse transcriptase (Human immunodeficiency virus 1, UniProt Q72547, K103N/Y181C); experiment: Inhibition of HIV1 recombinant reverse transcriptase K103N/Y181C double mutant by SPA heteropolymeric assay
Recorded log10(IC50), one value per entry.
property_name: log10(IC50) (log10 of the value in µM)

                               record_smiles  property_name  number
 0  Cc1cc(C#N)cc(C)c1Nc1ccnc(NC2CCN(c3cccc(C(N)=O)c3)CC2)n1    log10(IC50)   -1.64
 1  Cc1cc(C#N)cc(C)c1Oc1ccnc(NC2CCN(c3cccc(C(N)=O)c3)CC2)n1    log10(IC50)   -1.80
 2  Cc1cc(C#N)cc(C)c1Oc1ccnc(NC2CCN(c3cccc(C#N)c3)CC2)n1    log10(IC50)   -0.11
 3  Cc1cc(C#N)cc(C)c1Oc1ccnc(NC2CCN(c3cc(Cl)cc(C(N)=O)c3)CC2)n1    log10(IC50)   -0.58
 4  Cc1cc(C#N)cc(C)c1Oc1nc(NC2CCN(c3cccc(C(N)=O)c3)CC2)ncc1Cl    log10(IC50)   -1.89
 5  Cc1cc(C#N)cc(Cl)c1Oc1nc(NC2CCN(c3cccc(C(N)=O)c3)CC2)ncc1Cl    log10(IC50)   -1.70
 6  COc1cc(C#N)cc(C)c1Oc1ccnc(NC2CCN(c3cccc(C(N)=O)c3)CC2)n1    log10(IC50)   -1.74
 7  Cc1cc(C#N)cc(C)c1Oc1ccnc(NC2CCN(c3ccc(Cl)c(C(N)=O)c3)CC2)n1    log10(IC50)   -0.72
 8  COc1cc(C#N)cc(C)c1Oc1nc(NC2CCN(c3cccc(C(N)=O)c3)CC2)ncc1Cl    log10(IC50)   -1.72
 9  Cc1cc(C#N)cc(Cl)c1Nc1nc(NC2CCN(c3cccc(C(N)=O)c3)CC2)ncc1Br    log10(IC50)   -1.82
10  Cc1cnc(NC2CCN(c3cccc(C(N)=O)c3)CC2)nc1Oc1c(C)cc(C#N)cc1Cl    log10(IC50)   -2.22
11  Cc1cc(C#N)cc(C)c1Nc1nc(NC2CCN(c3cccc(C(N)=O)c3)CC2)ncc1Br    log10(IC50)   -1.72
12  Cc1cc(C#N)cc(C)c1Oc1ccnc(NC2CCN(c3cccc(S(C)(=O)=O)c3)CC2)n1    log10(IC50)   -0.62
